I'd be grateful if you could share measured FACS-Seq fitted mean (log10) for these entries.
B1: library; a variant is named by its letters at N, in order (parent)
chain: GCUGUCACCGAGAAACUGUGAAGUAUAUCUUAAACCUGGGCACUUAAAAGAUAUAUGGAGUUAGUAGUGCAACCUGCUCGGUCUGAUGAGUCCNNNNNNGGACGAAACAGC

- Variants of: B1
- MEASUREMENT DESCRIPTION: FACS-Seq fitted mean relative fluorescence mCherry/BFP with ligand (log10 relative fluorescence); HEK293T; ligand: cyclic di-GMP (c-di-GMP-II aptamer); ligand concentration (+) FACS-Seq: 1 mM; higher = higher reporter protein expression
- RUN CONDITIONS: ligand present: yes
Give the figure by itself; no unit, no explanation.

### Prompt So what does the record say about FACS-Seq fitted mean (log10) for GCUGUCACCGAGAAACUGUGAAGUAUAUCUUAAACCUGGGCACUUAAAAGAUAUAUGGAGUUAGUAGUGCAACCUGCUCGGUCUGAUGAGUCCAAGCCUGGACGAAACAGC [AAGCCU] ?
### Response 0.37

### Prompt So what does the record say about FACS-Seq fitted mean (log10) for GCUGUCACCGAGAAACUGUGAAGUAUAUCUUAAACCUGGGCACUUAAAAGAUAUAUGGAGUUAGUAGUGCAACCUGCUCGGUCUGAUGAGUCCCUUAGCGGACGAAACAGC [CUUAGC] ?
### Response -0.484

### Prompt So what does the record say about FACS-Seq fitted mean (log10) for GCUGUCACCGAGAAACUGUGAAGUAUAUCUUAAACCUGGGCACUUAAAAGAUAUAUGGAGUUAGUAGUGCAACCUGCUCGGUCUGAUGAGUCCCGCUAAGGACGAAACAGC [CGCUAA] ?
### Response -0.386

### Prompt So what does the record say about FACS-Seq fitted mean (log10) for GCUGUCACCGAGAAACUGUGAAGUAUAUCUUAAACCUGGGCACUUAAAAGAUAUAUGGAGUUAGUAGUGCAACCUGCUCGGUCUGAUGAGUCCAUCUGCGGACGAAACAGC [AUCUGC] ?
### Response 0.176

### Prompt So what does the record say about FACS-Seq fitted mean (log10) for GCUGUCACCGAGAAACUGUGAAGUAUAUCUUAAACCUGGGCACUUAAAAGAUAUAUGGAGUUAGUAGUGCAACCUGCUCGGUCUGAUGAGUCCAAUGAAGGACGAAACAGC [AAUGAA] ?
### Response 0.113

### Prompt So what does the record say about FACS-Seq fitted mean (log10) for GCUGUCACCGAGAAACUGUGAAGUAUAUCUUAAACCUGGGCACUUAAAAGAUAUAUGGAGUUAGUAGUGCAACCUGCUCGGUCUGAUGAGUCCCCUGUAGGACGAAACAGC [CCUGUA] ?
### Response -0.0267

### Prompt So what does the record say about FACS-Seq fitted mean (log10) for GCUGUCACCGAGAAACUGUGAAGUAUAUCUUAAACCUGGGCACUUAAAAGAUAUAUGGAGUUAGUAGUGCAACCUGCUCGGUCUGAUGAGUCCGUUAGAGGACGAAACAGC [GUUAGA] ?
### Response -0.0172

### Prompt So what does the record say about FACS-Seq fitted mean (log10) for GCUGUCACCGAGAAACUGUGAAGUAUAUCUUAAACCUGGGCACUUAAAAGAUAUAUGGAGUUAGUAGUGCAACCUGCUCGGUCUGAUGAGUCCUUUCUAGGACGAAACAGC [UUUCUA] ?
### Response -0.016

### Prompt So what does the record say about FACS-Seq fitted mean (log10) for GCUGUCACCGAGAAACUGUGAAGUAUAUCUUAAACCUGGGCACUUAAAAGAUAUAUGGAGUUAGUAGUGCAACCUGCUCGGUCUGAUGAGUCCCGGGGAGGACGAAACAGC [CGGGGA] ?
### Response -0.28

### Prompt So what does the record say about FACS-Seq fitted mean (log10) for GCUGUCACCGAGAAACUGUGAAGUAUAUCUUAAACCUGGGCACUUAAAAGAUAUAUGGAGUUAGUAGUGCAACCUGCUCGGUCUGAUGAGUCCACUGGUGGACGAAACAGC [ACUGGU] ?
### Response -0.166

### Prompt So what does the record say about FACS-Seq fitted mean (log10) for GCUGUCACCGAGAAACUGUGAAGUAUAUCUUAAACCUGGGCACUUAAAAGAUAUAUGGAGUUAGUAGUGCAACCUGCUCGGUCUGAUGAGUCCGAGUAAGGACGAAACAGC [GAGUAA] ?
### Response 0.165

### Prompt So what does the record say about FACS-Seq fitted mean (log10) for GCUGUCACCGAGAAACUGUGAAGUAUAUCUUAAACCUGGGCACUUAAAAGAUAUAUGGAGUUAGUAGUGCAACCUGCUCGGUCUGAUGAGUCCCCGUUGGGACGAAACAGC [CCGUUG] ?
### Response -0.246

### Prompt So what does the record say about FACS-Seq fitted mean (log10) for GCUGUCACCGAGAAACUGUGAAGUAUAUCUUAAACCUGGGCACUUAAAAGAUAUAUGGAGUUAGUAGUGCAACCUGCUCGGUCUGAUGAGUCCCUAAAUGGACGAAACAGC [CUAAAU] ?
### Response -0.0872

### Prompt So what does the record say about FACS-Seq fitted mean (log10) for GCUGUCACCGAGAAACUGUGAAGUAUAUCUUAAACCUGGGCACUUAAAAGAUAUAUGGAGUUAGUAGUGCAACCUGCUCGGUCUGAUGAGUCCAAGGGUGGACGAAACAGC [AAGGGU] ?
### Response -0.278

### Prompt So what does the record say about FACS-Seq fitted mean (log10) for GCUGUCACCGAGAAACUGUGAAGUAUAUCUUAAACCUGGGCACUUAAAAGAUAUAUGGAGUUAGUAGUGCAACCUGCUCGGUCUGAUGAGUCCGCAUUGGGACGAAACAGC [GCAUUG] ?
### Response -0.211

### Prompt So what does the record say about FACS-Seq fitted mean (log10) for GCUGUCACCGAGAAACUGUGAAGUAUAUCUUAAACCUGGGCACUUAAAAGAUAUAUGGAGUUAGUAGUGCAACCUGCUCGGUCUGAUGAGUCCAAGCGAGGACGAAACAGC [AAGCGA] ?
### Response -0.202

### Prompt So what does the record say about FACS-Seq fitted mean (log10) for GCUGUCACCGAGAAACUGUGAAGUAUAUCUUAAACCUGGGCACUUAAAAGAUAUAUGGAGUUAGUAGUGCAACCUGCUCGGUCUGAUGAGUCCGAAUAAGGACGAAACAGC [GAAUAA] ?
### Response -0.0182

### Prompt So what does the record say about FACS-Seq fitted mean (log10) for GCUGUCACCGAGAAACUGUGAAGUAUAUCUUAAACCUGGGCACUUAAAAGAUAUAUGGAGUUAGUAGUGCAACCUGCUCGGUCUGAUGAGUCCUAACGAGGACGAAACAGC [UAACGA] ?
### Response 0.272

### Prompt So what does the record say about FACS-Seq fitted mean (log10) for GCUGUCACCGAGAAACUGUGAAGUAUAUCUUAAACCUGGGCACUUAAAAGAUAUAUGGAGUUAGUAGUGCAACCUGCUCGGUCUGAUGAGUCCCGUAAUGGACGAAACAGC [CGUAAU] ?
### Response -0.0343

### Prompt So what does the record say about FACS-Seq fitted mean (log10) for GCUGUCACCGAGAAACUGUGAAGUAUAUCUUAAACCUGGGCACUUAAAAGAUAUAUGGAGUUAGUAGUGCAACCUGCUCGGUCUGAUGAGUCCAUUCAGGGACGAAACAGC [AUUCAG] ?
### Response -0.0248
